- System: multidrug-resistant HIV-1 clinical isolate, patient 32
- run-description: microbe, parasite or virus in culture
- Assay type: cell-based
- measurement-conditions: Patient Isolate 32
Provide the reported IC50 of each item.
Entry format: amount then unit.

Q: Give recorded IC50 with multidrug-resistant HIV-1 clinical isolate, patient 32 for the following molecule: Cc1cn([C@H]2C=C[C@@H](CO)O2)c(=O)[nH]c1=O [Compound D4T]
Ans: 2410 nM

Q: Now consider O=c1[nH]cnc2c1ncn2[C@H]1CC[C@@H](CO)O1 [DDI, 2′3′-dideoxyinosine] .
Ans: 8400 nM

Q: Could you do the same for Cc1cn([C@H]2C[C@H](N=[N+]=[N-])[C@@H](CO)O2)c(=O)[nH]c1=O [AZT, 3′-azido-2′,3′-dideoxythymidine] , please?
Ans: 320 nM
